Tested on: E. coli EC-2549
Assay: Antibacterial microtitration assay (Test A), MIC
Type: cell-based
Settings: Escherichia coli, EC2549; Gram Negative Bacteria; strain EC-2549; read-out: Minimum Inhibitory Concentrations E. coli EC-2549
Listed next: entries and their corresponding log10(MIC).
Recall that a logarithmic scale is used here: each number is log10 of MIC in µg/mL.

| molecule | experimental-target | property-label | measured |
| --- | --- | --- | --- |
| COc1c(N2CCC(C(O)C(C)(F)F)C2)c(F)cc2c(=O)n(N)c(=O)n(C3CC3)c12 (centres unmarked) [drawing 314] | E. coli EC-2549 | log10(MIC) | 1.81 |
| COc1c(N2CCC(CCO)C2)c(F)cc2c(=O)n(N)c(=O)n(C3CC3)c12 (centres unmarked) [drawing 315] | E. coli EC-2549 | log10(MIC) | 1.20 |
| Nn1c(=O)c2cc(F)c(N3C[C@@H](O)[C@@H](O)C3)nc2n(C2CC2)c1=O [drawing 332] | E. coli EC-2549 | log10(MIC) | 1.20 |
| Nn1c(=O)c2cc(F)c(N3C[C@H](CO)[C@@H](CO)C3)nc2n(C2CC2)c1=O [drawing 331] | E. coli EC-2549 | log10(MIC) | 1.51 |

Then there is this molecule:
Noted for Nn1c(=O)c2cc(F)c(N3C[C@@H](CCO)[C@@H](CCO)C3)nc2n(C2CC2)c1=O [drawing 333] : its log10(MIC) reads -0.90

src = patent US20050119231A1
